Procedure details: CCTE_Shafer_MEA_acute_spike_number: CCTE's Neural Acute Assay for Total Number of Spikes, Shafer Lab (AID 2284008)
Activity calls are given as the source filed them. How the source made its calls: active means hit-call score of the fitted dose curve at least 0.9, where 1 is the maximum; inactive means score below 0.9.
# valid calls are active, inactive; nothing else

[Q] In this assay, the call recorded for COc1ccc(CO)cc1 was what?
[A] inactive

[Q] Field: outcome | Entry: c1cc[n+]2c(c1)-c1cccc[n+]1CC2
[A] inactive

[Q] Test call, this compound: O=C(O)CNCP(=O)(O)O
[A] inactive

[Q] I'd appreciate the recorded outcome for CCCC[N+](CCCC)(CCCC)CCCC from this test.
[A] active

[Q] Test call, this compound: O=c1c2ccccc2c(=O)c2c1cc(Cl)c1[nH]c3c([nH]c12)c(Cl)cc1c(=O)c2ccccc2c(=O)c13
[A] inactive

* * *

Tested target: Ratio of Nucleoli Translocation and Cytoplasm, AR (gene 367) (UniProt P10275)
Sequence (P10275 whole entry, looked up): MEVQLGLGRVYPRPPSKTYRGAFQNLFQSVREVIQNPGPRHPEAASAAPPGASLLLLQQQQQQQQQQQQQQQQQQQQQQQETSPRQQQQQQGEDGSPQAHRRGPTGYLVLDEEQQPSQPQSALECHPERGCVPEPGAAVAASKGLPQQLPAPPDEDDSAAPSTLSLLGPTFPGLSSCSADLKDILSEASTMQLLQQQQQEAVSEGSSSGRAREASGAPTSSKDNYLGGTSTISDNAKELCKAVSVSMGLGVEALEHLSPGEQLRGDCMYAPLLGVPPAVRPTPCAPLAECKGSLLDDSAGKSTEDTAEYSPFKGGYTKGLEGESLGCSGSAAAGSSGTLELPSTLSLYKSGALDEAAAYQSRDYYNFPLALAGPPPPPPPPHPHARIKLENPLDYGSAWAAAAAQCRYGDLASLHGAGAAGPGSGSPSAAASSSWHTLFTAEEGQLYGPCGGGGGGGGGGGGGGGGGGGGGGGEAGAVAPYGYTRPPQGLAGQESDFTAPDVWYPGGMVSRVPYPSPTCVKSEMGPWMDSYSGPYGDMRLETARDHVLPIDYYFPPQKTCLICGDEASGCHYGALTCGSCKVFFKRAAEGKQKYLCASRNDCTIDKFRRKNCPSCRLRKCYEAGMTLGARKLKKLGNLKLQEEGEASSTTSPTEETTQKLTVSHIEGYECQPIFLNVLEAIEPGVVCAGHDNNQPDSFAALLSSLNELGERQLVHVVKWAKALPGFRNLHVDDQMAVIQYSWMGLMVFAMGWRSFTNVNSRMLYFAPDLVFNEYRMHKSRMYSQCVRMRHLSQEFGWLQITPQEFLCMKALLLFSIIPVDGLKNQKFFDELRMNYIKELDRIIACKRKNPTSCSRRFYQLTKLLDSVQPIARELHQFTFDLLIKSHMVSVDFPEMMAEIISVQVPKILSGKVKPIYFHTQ
Procedure details: UPITT_HCI_U2OS_AR_TIF2_Nucleoli_Cytoplasm_Ratio_Antagonist: University of Pittsburgh U2OS Androgen Receptor-Transcriptional Intermediary Factor 2 (AR-TIF2) Antagonism High Content Imaging Assay for Ratio of Nucleoli Translocation and Cytoplasm (AID 2283999);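 further: antagonists lower the DHT-driven ratio of nucleolar to cytoplasmic red signal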
Text: UPITT_AR_TIF2_PPIB is a cell-based, high-content imaging assay that uses U2OS, a human osteosarcoma cell line, expressing a human androgen receptor fused to red fluorescent protein and the coactivator TIF2 fused to green fluorescent protein. UPITT_HCI_U2OS_AR_TIF2_Nucleoli_Cytoplasm_Ratio_Antagonist is one of four assay components measured from the UPITT_AR_TIF2_PPIB assay. […]
Inconclusive results are not listed. Calls of active or inactive are those of the source. Rule for the calls: active = hit-call score of the fitted dose curve at least 0.9, where 1 is the maximum; inconclusive = response in the unintended direction; inactive = score below 0.9.
Hello, when you answer, please use one of the following outcomes: active, inactive

[Q] Short answer needed: outcome of this test for CN(C)N ?
[A] inactive

[Q] Which outcome did this test record for the compound Clc1c(Cl)c(Cl)c2c(c1Cl)Oc1c(Cl)c(Cl)c(Cl)c(Cl)c1O2 ?
[A] inactive

[Q] Query: recorded result category for c1ccc2cc3c(cc2c1)-c1cccc2cccc-3c12 in this test
[A] inactive

[Q] Per the assay record, what outcome was assigned to O=C(NCNC(=O)NC1C(=O)NC(=O)N1CO)NC1C(=O)NC(=O)N1CO (centres undefined) ?
[A] active

* * *

Read-out: Monocyte Chemoattractant Protein-1 (MCP1), CCL2 (gene 6347)
Procedure details: BSK_4H_MCP1: BioMAP Diversity Plus: 4H Assay for Monocyte Chemoattractant Protein-1 (MCP1) Biomarker Activity (AID 2283018)
Reported conditions: primary human endothelial cells (HUVEC); actives raise or lower the signal
The source made the active and inactive calls. How the source made its calls: active means hit-call score of the fitted dose curve at least 0.9, where 1 is the maximum; inactive means score below 0.9.
Pick one: active, inactive

[Q] Hi team, can someone confirm the assay call for CC(C)COP(=O)(OCC(C)C)OCC(C)C ?
[A] inactive

[Q] Please indicate how the test categorized O=c1[nH]c(Cl)c(Cl)cc1Cl .
[A] inactive

[Q] Would you mind telling me which call this test gave CCCC[N+](CCCC)(CCCC)CCCC ?
[A] inactive

[Q] Recorded test outcome, item O=C(O)CCCc1ccc(N(CCCl)CCCl)cc1
[A] inactive

[Q] Dear colleague, could you share the recorded outcome for Oc1cc(Cl)ccc1Cl when you have a moment?
[A] inactive

[Q] Recorded call for CCC(C)c1cc([N+](=O)[O-])cc([N+](=O)[O-])c1OC(=O)C=C(C)C (stereo not drawn) ?
[A] active

[Q] I'd appreciate the recorded outcome for Cc1ccc(OP(=O)(Oc2ccc(C)cc2)Oc2ccc(C)cc2)cc1 (tested in a mixture with another compound) from this test.
[A] active

[Q] Per the records of this test, what outcome belongs to Clc1ccc(-c2ccccc2)cc1 ?
[A] active

[Q] Could you check what this test reported for COc1ccc(CO)cc1 ?
[A] inactive

[Q] Test call for this compound, please: CC(C)CCCCCCCOC(=O)c1ccccc1C(=O)OCCCCCCCC(C)C
[A] inactive

[Q] Each compound tested received a call. Report the one for O=[N+]([O-])O .
[A] inactive

[Q] Kindly provide the recorded test outcome for the following compound: N#CCCCCC#N
[A] inactive

[Q] # outcome recorded in this test, key = CC(C)(C)C(=O)CCl
[A] inactive

* * *

Tested target: human Protein Tyrosine Phosphatase Receptor Type C (PTPRC), PTPRC (gene 5788) (UniProt P08575)
Sequence (P08575 whole entry, looked up): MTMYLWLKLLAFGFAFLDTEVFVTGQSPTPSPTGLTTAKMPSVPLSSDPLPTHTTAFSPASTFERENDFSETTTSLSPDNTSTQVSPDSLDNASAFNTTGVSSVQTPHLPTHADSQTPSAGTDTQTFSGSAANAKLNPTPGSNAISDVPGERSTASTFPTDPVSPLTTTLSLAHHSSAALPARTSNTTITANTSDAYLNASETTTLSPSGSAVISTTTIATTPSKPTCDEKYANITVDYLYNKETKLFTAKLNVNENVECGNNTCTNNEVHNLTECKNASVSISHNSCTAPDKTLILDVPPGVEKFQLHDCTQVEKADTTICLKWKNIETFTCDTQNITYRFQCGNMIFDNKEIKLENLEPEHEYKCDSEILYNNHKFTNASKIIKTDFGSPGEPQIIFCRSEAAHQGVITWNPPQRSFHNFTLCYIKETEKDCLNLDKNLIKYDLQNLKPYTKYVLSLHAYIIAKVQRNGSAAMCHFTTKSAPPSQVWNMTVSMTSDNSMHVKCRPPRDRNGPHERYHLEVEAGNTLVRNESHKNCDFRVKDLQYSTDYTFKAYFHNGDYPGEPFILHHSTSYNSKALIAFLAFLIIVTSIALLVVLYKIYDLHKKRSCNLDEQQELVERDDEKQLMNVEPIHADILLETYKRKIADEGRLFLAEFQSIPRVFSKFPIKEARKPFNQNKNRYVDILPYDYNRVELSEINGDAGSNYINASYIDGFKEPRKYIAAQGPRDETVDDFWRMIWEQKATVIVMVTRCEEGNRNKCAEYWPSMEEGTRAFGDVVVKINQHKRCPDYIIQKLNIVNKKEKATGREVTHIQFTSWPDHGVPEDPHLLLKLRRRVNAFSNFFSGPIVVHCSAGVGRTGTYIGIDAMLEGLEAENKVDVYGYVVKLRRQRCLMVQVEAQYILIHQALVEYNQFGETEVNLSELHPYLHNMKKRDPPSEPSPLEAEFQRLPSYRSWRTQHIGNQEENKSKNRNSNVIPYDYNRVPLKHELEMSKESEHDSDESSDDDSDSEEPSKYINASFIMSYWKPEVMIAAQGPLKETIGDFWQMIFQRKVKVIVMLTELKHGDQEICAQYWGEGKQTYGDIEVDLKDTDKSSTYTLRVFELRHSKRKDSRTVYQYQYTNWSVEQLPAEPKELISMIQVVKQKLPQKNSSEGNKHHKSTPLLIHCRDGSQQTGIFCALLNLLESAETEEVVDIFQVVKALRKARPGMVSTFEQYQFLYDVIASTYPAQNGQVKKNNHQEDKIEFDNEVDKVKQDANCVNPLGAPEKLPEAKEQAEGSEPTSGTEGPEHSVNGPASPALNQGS
Procedure details: NVS_ENZ_hPTPRC: NovaScreen (NVS) Enzymatic Assay for human Protein Tyrosine Phosphatase Receptor Type C (PTPRC) (AID 2283212)
Records with an inconclusive call do not appear. Active and inactive are the calls of the source. The calls were made as follows: active = hit-call score of the fitted dose curve at least 0.9, where 1 is the maximum; inconclusive = response in the unintended direction; inactive = score below 0.9.
Respond with a class label; see 1 for active, 0 for inactive

[Q] # lookup: test call for NC(=O)NN=Cc1ccc([N+](=O)[O-])o1
[A] 1

[Q] For CCCC[C@H]1CN(CC2CCOCC2)C(=O)OC12CCN(C1(C)CCN(C(=O)c3c(C)ncnc3C)CC1)CC2 , what call appears in the results of this test?
[A] 0

[Q] Fill in: this test's call for CS(=O)(=O)c1ccc([C@@H](C[C@H]2CCC(=O)C2)C(=O)Nc2cnccn2)cc1Cl is ___
[A] 1

[Q] // return assay outcome for O=C(O)Cc1ccccc1Nc1c(Cl)cccc1Cl
[A] 0

[Q] Outcome logged for Cc1oc(-c2ccccc2)nc1CCOc1cccc2c1ccn2CCC(=O)O in this assay:
[A] 1

[Q] Each compound tested received a call. Report the one for Cc1c(C(=O)O)c(O)cc2c1C(=O)c1c(O)c([C@@H]3O[C@H](CO)[C@@H](O)[C@H](O)[C@H]3O)c(O)c(O)c1C2=O .
[A] 1

[Q] Could you please tell me the result logged for Nc1cccc2c(N)cccc12 in this assay?
[A] 1

* * *

Tested target: human Matrix Metalloproteinase-1 (MMP1), MMP1 (gene 4312) (UniProt P03956)
Sequence (P03956 whole entry, looked up): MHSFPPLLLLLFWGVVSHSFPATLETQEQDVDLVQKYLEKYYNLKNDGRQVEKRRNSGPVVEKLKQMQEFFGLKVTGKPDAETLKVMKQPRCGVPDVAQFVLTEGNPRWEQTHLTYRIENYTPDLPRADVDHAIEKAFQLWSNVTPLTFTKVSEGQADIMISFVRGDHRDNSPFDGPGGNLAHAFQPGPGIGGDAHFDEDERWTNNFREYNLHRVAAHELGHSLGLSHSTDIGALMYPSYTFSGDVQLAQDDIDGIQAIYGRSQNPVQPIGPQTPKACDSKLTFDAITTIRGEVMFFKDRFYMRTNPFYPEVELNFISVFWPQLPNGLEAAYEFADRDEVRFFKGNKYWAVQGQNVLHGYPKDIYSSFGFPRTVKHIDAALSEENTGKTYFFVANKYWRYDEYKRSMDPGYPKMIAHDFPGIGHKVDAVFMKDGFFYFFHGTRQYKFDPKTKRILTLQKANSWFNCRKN
Procedure details: NVS_ENZ_hMMP1: NovaScreen (NVS) Enzymatic Assay for human Matrix Metalloproteinase-1 (MMP1) (AID 2283181)
Procedure: NVS_ENZ_hMMP1 is a biochemical, single-readout assay that uses extracted gene-proteins in a cell-free assay. Measurements were taken 1 hour after chemical dosing in a 96-well plate.NVS_ENZ_hMMP1 is one of one assay component(s) measured or calculated from the NVS_ENZ_hMMP1 assay. […] This assay endpoint, NVS_ENZ_hMMP1, was analyzed in the positive analysis fitting direction relative to DMSO as the negative control and baseline of activity. […]
Records with an inconclusive call do not appear. Activity calls are given as the source filed them. Rule for the calls: active = hit-call score of the fitted dose curve at least 0.9, where 1 is the maximum; inconclusive = response in the unintended direction; inactive = score below 0.9.
Pick one and only one: True (active), False (inactive)

[Q] Dear all, I need the recorded test outcome for COc1ccc([N+](=O)[O-])cc1N , thank you.
[A] True

[Q] Check the results log: what was the call for CCCCN1C(=O)[C@@H]([C@H](O)C2CCCCC2)NC(=O)C12CCN(Cc1ccc(Oc3ccc(C(=O)O)cc3)cc1)CC2 ?
[A] False

[Q] Name the outcome recorded for CCN(CC)CCOc1ccc(C(=C(Cl)c2ccccc2)c2ccccc2)cc1 in the assay.
[A] False

[Q] Given CCCCC(CC)COC(=O)CC(C(=O)OCC(CC)CCCC)S(=O)(=O)O (stereo not given) , state the outcome it received in this test.
[A] False

[Q] Look up the recorded call for O=P(OC(CCl)CCl)(OC(CCl)CCl)OC(CCl)CCl in this test.
[A] False

[Q] Each molecule tested received a call. Report the one for c1ccc(C(O[C@@H]2CCCN(CCc3ccc4c(c3)OCO4)C2)c2ccccc2)cc1 .
[A] True

[Q] Per the records of this test, what outcome belongs to CC(C)(c1cc(Br)c(O)c(Br)c1)c1cc(Br)c(O)c(Br)c1 ?
[A] False

[Q] What outcome does the record of this test show for C=CCCCCCCCCCCCC ?
[A] False

[Q] Assay result, entry CCCCOC(=O)CC(CC(=O)OCCCC)(OC(C)=O)C(=O)OCCCC — outcome?
[A] False

[Q] Called result for CCc1cc(SCc2sc(-c3ccc(C(F)(F)F)cc3)nc2CN2CCN(c3ccc(OC)cc3)CC2)ccc1OCC(=O)O
[A] True

* * *

Tested target: CCAAT/enhancer-binding protein beta (Homo sapiens)
Procedure details: ATG_C_EBP_CIS: Attagene CIS-FACTORIAL HepG2 Assay for human CCAAT/Enhancer Binding Protein (C/EBP) beta (AID 2282927)
Reported conditions: HepG2 Attagene cis-factorial transcription factor reporter; actives raise or lower the signal
Active and inactive are the calls of the source. How the source made its calls: active means hit-call score of the fitted dose curve at least 0.9, where 1 is the maximum; inactive means score below 0.9.
The categories you may choose from are t for active, f for inactive

[Q] I'd appreciate the recorded outcome for CC1(C)[C@H](C(=O)O[C@H](C#N)c2cccc(Oc3ccccc3)c2)[C@@H]1C=C(Br)Br from this test.
[A] f

[Q] Given SCc1ccco1 , state the outcome it received in this test.
[A] f

[Q] // outcome(item) with item = Cc1ncc(C[n+]2csc(CCO)c2C)c(N)n1
[A] f

[Q] Record request — test call for Oc1ccc(C2(c3ccc(O)cc3)c3ccccc3-c3ccccc32)cc1
[A] t

[Q] Given O=C(CCN1CC1)OCC(CO)(COC(=O)CCN1CC1)COC(=O)CCN1CC1 , state the outcome it received in this test.
[A] f

[Q] Fill in: this test's call for O=[N+]([O-])O.O=[N+]([O-])O.[Cd] is ___
[A] t

[Q] Answer briefly: the call reported for O=C1C=CC(=O)C=C1 in this assay.
[A] f

[Q] Test call, this molecule: O=C(O)COc1ccccc1
[A] f

[Q] Which outcome was assigned to CCOP(O)OCC in this test?
[A] f

[Q] GET /call?item= CCCOC(=O)c1ccccc1C(=O)OCCC returns the recorded outcome of this test.
[A] f

[Q] Dear all, I need the recorded test outcome for c1ccc2c(c1)CCCC2 , thank you.
[A] f

[Q] How did this test come out for c1ccc(P(c2ccccc2)c2ccccc2)cc1 ?
[A] f

[Q] # outcome recorded in this test, key = CC(Cc1ccc(C(C)(C)C)cc1)CN1C[C@@H](C)O[C@@H](C)C1 (stereo partly drawn)
[A] f

[Q] Call for entry CN(N=O)c1ccccc1 :
[A] f

[Q] Each molecule tested received a call. Report the one for COc1cc(OC)c(OC)cc1C=O .
[A] f

[Q] Just curious, what result did CC(C)COP(=O)(OCC(C)C)OCC(C)C get here?
[A] f

[Q] Write down the call the test reported for this molecule. Item: COC(=O)COc1ccc(Cl)cc1Cl
[A] f

[Q] Could you please tell me the result logged for COC(C)(C)CCC[C@H](C)C/C=C/C(C)=C/C(=O)OC(C)C in this assay?
[A] f

[Q] Identify the outcome logged in this assay for the molecule shown: O=[N+]([O-])c1ccc(Cl)cc1
[A] f

[Q] Hey, what did the test say about CC1CCC(=O)O1 (stereo not drawn) ?
[A] f

[Q] # lookup: test call for C=CCO
[A] f

[Q] Give the logged outcome of this assay for the following molecule: CCCCCCCCCCCC#N
[A] f

[Q] Record lookup: outcome of this test for S=c1[nH]c2ccccc2[nH]1 ?
[A] f

[Q] Could you kindly confirm the outcome this assay logged for CCC(C)c1cc(C(C)(C)C)cc(-n2nc3ccccc3n2)c1O (stereo not drawn) ?
[A] f

[Q] Test call, this molecule: COc1cc(OC)nc(Oc2cccc(Oc3nc(OC)cc(OC)n3)c2C(=O)O)n1
[A] f

[Q] Record lookup: outcome of this test for CC(C)(c1cc(Cl)c(O)c(Cl)c1)c1cc(Cl)c(O)c(Cl)c1 ?
[A] f

[Q] Which outcome was assigned to CCC1CCC(=O)O1 (stereo not drawn) in this test?
[A] f

[Q] Which result was noted for this molecule in the test: CCOC(=O)C1OC1(C)c1ccccc1 (stereo not drawn)
[A] f

[Q] Could you please tell me the result logged for C=C(Cl)Cl in this assay?
[A] f

[Q] // param item: Nc1cc(Cl)cc(Cl)c1 ; yields the recorded call
[A] f

[Q] Dear colleague, could you share the recorded outcome for C=CCc1ccc(OC(=O)Cc2ccccc2)c(OC)c1 when you have a moment?
[A] f

[Q] Any idea what this test logged for CN(C)CCC#N ?
[A] f

[Q] Give the logged outcome of this assay for the following molecule: CC(C)CCCCCCCOP(=O)(Oc1ccccc1)Oc1ccccc1
[A] f

[Q] Which outcome did this test record for the molecule O=C(CCl)c1ccccc1 ?
[A] f

[Q] What outcome does the record of this test show for Nc1ccc(Cl)c(Cl)c1 ?
[A] f

[Q] Assay outcome for COCC(=O)N(c1c(C)cccc1C)N1CCOC1=O : what was it?
[A] f

[Q] Identify the outcome logged in this assay for the molecule shown: C[N+](C)(C)CC(=O)[O-]
[A] f

[Q] Per the records of this test, what outcome belongs to Cl/C=C\CCl ?
[A] f

[Q] # lookup: test call for CCCCOC(=O)CCC(=O)OCCCC
[A] f

[Q] Status in this test for CC1(C)CC(=O)CC(C)(C)N1[O] ?
[A] f

[Q] Which outcome was entered for the molecule N#Cc1cc(I)c(O)c(I)c1 in this test?
[A] f

[Q] Give the logged outcome of this assay for the following molecule: O=C(O)c1cc[c]([Hg][Cl])cc1
[A] f

[Q] Any idea what this test logged for CCOC(=O)NC(=S)Nc1ccccc1NC(=S)NC(=O)OCC ?
[A] f

[Q] What did this assay record as the result for O=CNC(N1CCN(C(NC=O)C(Cl)(Cl)Cl)CC1)C(Cl)(Cl)Cl (stereo not drawn) ?
[A] f

[Q] Dear colleague, could you share the recorded outcome for CNC(=O)Oc1cc(C)c(SC)c(C)c1 when you have a moment?
[A] f

[Q] Dear all, I need the recorded test outcome for CCC(C)c1cc([N+](=O)[O-])cc([N+](=O)[O-])c1OC(=O)C=C(C)C (stereo not drawn) , thank you.
[A] t

[Q] Hi, sorry to bother you, what did the test record for O=P1(NCCCl)OCCCN1CCCl (stereo not drawn) ?
[A] f

[Q] State the result this test recorded for O=[N+]([O-])O .
[A] f

[Q] Which outcome was assigned to CC(=O)c1cc2c(cc1C)C(C)(C)C(C)CC2(C)C (stereo not drawn) in this test?
[A] t

[Q] Can you look up the reported call for C=Cc1cccc(CCl)c1 for me?
[A] f

[Q] # fetch the recorded call for C#CC1(O)CCCCC1 here
[A] f

[Q] Would you mind telling me which call this test gave C=CCN(CC=C)C(=O)C(Cl)Cl ?
[A] f

[Q] What classification did CC(C)[C@@H](C(=O)O[C@@H](C#N)c1cccc(Oc2ccccc2)c1)c1ccc(Cl)cc1 end up with in this test?
[A] f

[Q] State the result this test recorded for CCOC(=O)N(C)N=O .
[A] f

[Q] Look up the recorded call for NNc1ccccc1 in this test.
[A] f

[Q] // return assay outcome for Cc1ccc(OP(=O)(Oc2ccc(C)cc2)Oc2ccc(C)cc2)cc1 (tested in a mixture with another compound)
[A] f

[Q] For CC(=O)C=Cc1ccccc1 , what call appears in the results of this test?
[A] t

[Q] Outcome logged for CN1C(=O)CCS(=O)(=O)C1c1ccc(Cl)cc1 (stereo not drawn) in this assay:
[A] f
